Where do the numbers come from? From ChEMBL document CHEMBL4513149.

Test system: Klebsiella pneumoniae
Conditions: Concentration 20 uM; ASSAY_TEST Inhibition of Bacterial Growth; detection method Absorption (OD600); MEDIA CAMHB; plate type 384well; NBS; CORNING #3640; time 18 hr
Description: Antibacterial activity against Klebsiella pneumoniae MDR ATCC 70063 (CO-ADD:GN_003); MIC in CAMBH media using NBS plates, by OD(600)
Measured potencies and affinities stand elsewhere.
Each entry below lists one item and its recorded Inhibition value.

Below, 3 compounds whose answers are already recorded.
Compound | Study Target | Inhibition
CCCCN(CCCC)c1c(C#N)cc(S(=O)(=O)Nc2ccccc2)cc1C#N | Klebsiella pneumoniae | 5.16%
N#Cc1ccc(-c2ccc(OCC(N)=O)cc2)cc1 | Klebsiella pneumoniae | 5.71%
CCC(Sc1nc2ccccc2o1)C(=O)Nc1nnc(C)s1 (stereo unspecified) | Klebsiella pneumoniae | -2.47%

For "c1ccc(Oc2ccc(-c3cc(C4CCOCC4)[nH]n3)cc2)cc1" , write its Inhibition.
16.38%

For "COc1cc(CN2CCC3(C=Cc4ccccc43)CC2)cc2c1OCO2" , write its Inhibition.
-1.15%

For "COc1cc(C(F)(F)F)nc2ccc(C)c(N)c12" , write its Inhibition.
11.25%

For "COc1ccc(C2=NCCN2)cc1-c1cn(-c2cccc(C3=NCCN3)c2)nn1.O=C(O)C(F)(F)F.O=C(O)C(F)(F)F" , write its Inhibition.
17.32%

For "CC(C)(C)n1nc(-c2ccccc2)c2c(N)ncnc21" , write its Inhibition.
1.67%

For "Cc1ccccc1C(=O)N1N=C(Nc2ccccc2)SC1(C)C" , write its Inhibition.
6.87%

For "CC(=O)N(CCN(C(=O)c1ccc(F)cc1)c1ccccc1)c1ccccc1" , write its Inhibition.
8.37%

For "Cc1ccc(-c2cc(C(=O)Nc3cccnc3)c3cc(Br)ccc3n2)cc1" , write its Inhibition.
15.62%
